B1: CAMK2A (parent)
chain: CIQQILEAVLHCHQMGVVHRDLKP

- Variants of: B1
- experiment-summary: protein stability index of a GFP-peptide fusion (GPS, HEK-293T) (PSI 1-6); higher = more stable;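 note: lentivirally expressed fusions sorted by FACS into six bins by GFP to DsRed ratio, PSI derived from sequencing read proportions per bin multiplied by bin number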
- test-context: c terminus: a fixed tail appended
Rule: protein stability index of 2 or more gives 1 (yes); anything lower gives 0 (no).

Input: Threshold query (protein stability index >= 2) on CIQQILEMVLHCHQMGVVHRDLKP
Output: 1 (yes)

Input: Threshold query (protein stability index >= 2) on CIKQILEAVLHCHQMGVVHRDLKP
Output: 1 (yes)

Data provenance is the supplement of paper PMC10567573.
